Give log10 of TGI for every item shown.
System: SNB-75 CNS
Test: NCI tumour cell line growth inhibition, 48 h
Recorded TGI (log10, µM)

Prompt: API: value(readout= log10 of TGI, system= SNB-75 CNS, query= CC(CCCOC(c1ccccc1)(c1ccccc1)c1ccccc1)OC(=O)Nc1cc([N+](=O)[O-])cc([N+](=O)[O-])c1 (stereo unspecified) )
Completion: 1.86

Prompt: API: value(readout= log10 of TGI, system= SNB-75 CNS, query= O=c1cccccc1NCCCCCCCCCNc1cccccc1=O )
Completion: 1.80

Prompt: API: value(readout= log10 of TGI, system= SNB-75 CNS, query= CCOC(CCCN1CCC2(CC1)C(=O)N(C)CN2c1ccccc1)(OCC)c1ccc(F)cc1 )
Completion: 1.64

Prompt: API: value(readout= log10 of TGI, system= SNB-75 CNS, query= CCc1c[nH]c2ncnc(N3CC[C@@](N)(CNC(=O)c4ccc(F)cc4F)C3)c12 )
Completion: 1.89

Now, please, on to the next molecule.
Prompt: API: value(readout= log10 of TGI, system= SNB-75 CNS, query= O=c1oc2ccc(Cl)cc2c(=O)n1-c1ccc(I)cc1F )
Completion: 0.13
